- method.summary: Oral bioavailability in Beagle dog at 3 to 10 umol/kg
- Format: ADME, organism-based, Canis lupus familiaris
- condition.info: in vivo
measurement.label: bioavailability (%)
State just the number; it will be interpreted in %.

Indicate the recorded bioavailability value for this compound: C[C@H]1COCCN1c1cc(C2(S(=O)(=O)C3CC3)CC2)nc(-c2ccc(NC(=S)NCCO)cc2)n1 73

###

- Test system: human MDR1
- method.summary: Apparent permeability from basolateral to apical side of MDCK2 cells expressing human MDR1 at 10 uM
- Format: ADME, cell-based, Canis lupus familiaris, MDCK-II
- condition.info: dog, MDCK-MDR1
measurement.label: Papp B→A at 10 µM (×10⁻⁶ cm/s)
State just the number; it will be interpreted in ×10⁻⁶ cm/s.

Indicate the recorded Papp B→A at 10 µM value for this molecule: C[C@H]1COCCN1c1cc(C2(S(=O)(=O)c3ccccc3)CC2)nc(-c2ccc(NC(=O)NCCO)cc2)n1 24

Indicate the recorded Papp B→A at 10 µM value for this molecule: C[C@H]1COCCN1c1cc(C2(S(=O)(=O)C3CC3)CC2)nc(-c2ccc(NC(=S)NCCO)cc2)n1 43

Indicate the recorded Papp B→A at 10 µM value for this molecule: C[C@H]1COCCN1c1cc(C2(S(=O)(=O)CCCO)CC2)nc(-c2ccc(NC(=S)NC3CC3)cc2)n1 22

Indicate the recorded Papp B→A at 10 µM value for this molecule: C[C@H]1COCCN1c1cc(C2(S(C)(=O)=O)CC2)nc(-c2ccc(NC(=S)NCCO)cc2)n1 17

Indicate the recorded Papp B→A at 10 µM value for this molecule: C[C@H]1COCCN1c1cc(C2(S(=O)(=O)c3ccccc3)CC2)nc(-c2ccc(NC(=O)NCCCO)cc2)n1 31
